- System Under Test: His6-AspH315–758 (human aspartate/asparagine-β-hydroxylase, AspH) (Homo sapiens, UniProt Q12797)
- Construct: N-Terminally His6-tagged human AspH315–758 (His6-AspH315–758) was produced in E. coli BL21 (DE3) cells; made in house; host or cells: E. coli BL21 (DE3), pET-28a(+) vector
- Experimental Details: SPE-MS AspH inhibition assay (LOPAC screen at fixed 20 μM and IC50 dose-response), hydroxylation of cyclic peptide hFX-CP101–119
- Format: biochemical
- Protocol Conditions: LOPAC compound at fixed 20 uM; plate 1, normalised to DMSO and 2,4-PDCA controls
Measured Metric: Plate 1 (% inhibition)
Give the number first and the unit second.

// query If you can, please state the reported Plate 1 (% inhibition) value of CCCNC(=O)NS(=O)(=O)c1ccc(Cl)cc1 [Chlorpropamide] .
// result -3.59%

// query If you can, please state the reported Plate 1 (% inhibition) value of CC(=O)OCC1=C(C(=O)O)N2C(=O)[C@@H](NC(=O)Cc3cccs3)[C@H]2SC1 [Cephalothin sodium] .
// result 9.86%

// query If you can, please state the reported Plate 1 (% inhibition) value of CNC(=O)[C@H]1O[C@@H](n2cnc3c(NCc4ccc(N)cc4)ncnc32)[C@H](O)[C@@H]1O [AB-MECA] .
// result -6.25%

----------
- System Under Test: His6-AspH315–758 (human aspartate/asparagine-β-hydroxylase, AspH) (Homo sapiens)
- Construct: N-Terminally His6-tagged human AspH315–758 (His6-AspH315–758) was produced in E. coli BL21 (DE3) cells; made in house; host or cells: E. coli BL21 (DE3), pET-28a(+) vector
- Experimental Details: SPE-MS AspH inhibition assay (LOPAC screen at fixed 20 μM and IC50 dose-response), hydroxylation of cyclic peptide hFX-CP101–119
- Assay type: biochemical
I'd appreciate it if you could supply Plate 1 (% conversion) values for the items below.
Give your result in % as a bare value.

// query If you can, please state the reported Plate 1 (% conversion) value of O=C(Nc1cccnc1)N1CCC(Cc2cccc(Oc3ccc(C(F)(F)F)cn3)c2)CC1 [PF 3845 hydrate] .
// result 45.36

// query If you can, please state the reported Plate 1 (% conversion) value of COc1ccc(C(=O)N2CCCC2=O)cc1 [Aniracetam] .
// result 23.49

// query If you can, please state the reported Plate 1 (% conversion) value of NC(CP(=O)(O)O)C(=O)O (racemic) [(±)-2-Amino-3-phosphonopropionic acid] .
// result 38.27

// query If you can, please state the reported Plate 1 (% conversion) value of C[N+](C)(C)CCO.[Br-] [Choline bromide] .
// result 37.78

// query If you can, please state the reported Plate 1 (% conversion) value of Cl.c1ccc2sc(C3(N4CCCCC4)CCCCC3)cc2c1 [BTCP hydrochloride] .
// result 41.13

// query If you can, please state the reported Plate 1 (% conversion) value of C[C@H](CS)C(=O)N1CCC[C@H]1C(=O)O [Captopril] .
// result 35.34

// query If you can, please state the reported Plate 1 (% conversion) value of CN1CCC(c2c[nH]c3ccc(O)cc23)CC1.O=C(O)/C=C\C(=O)O [BRL 54443 maleate] .
// result 33.54

// query If you can, please state the reported Plate 1 (% conversion) value of NC(CCCP(=O)(O)O)C(=O)O (racemic) [(±)-2-Amino-5-phosphonopentanoic acid] .
// result 39.06

// query If you can, please state the reported Plate 1 (% conversion) value of N=C(N)NCCC[C@H](N)C(=O)O [L-Arginine] .
// result 38.11

----------
I'd appreciate it if you could supply inhibition at 20 µM values for the items below.
- System Under Test: His6-AspH315–758 (human aspartate/asparagine-β-hydroxylase, AspH) (Homo sapiens, UniProt Q12797)
- Construct: N-Terminally His6-tagged human AspH315–758 (His6-AspH315–758) was produced in E. coli BL21 (DE3) cells; made in house; host or cells: E. coli BL21 (DE3), pET-28a(+) vector
- Sequence (Q12797 315-758): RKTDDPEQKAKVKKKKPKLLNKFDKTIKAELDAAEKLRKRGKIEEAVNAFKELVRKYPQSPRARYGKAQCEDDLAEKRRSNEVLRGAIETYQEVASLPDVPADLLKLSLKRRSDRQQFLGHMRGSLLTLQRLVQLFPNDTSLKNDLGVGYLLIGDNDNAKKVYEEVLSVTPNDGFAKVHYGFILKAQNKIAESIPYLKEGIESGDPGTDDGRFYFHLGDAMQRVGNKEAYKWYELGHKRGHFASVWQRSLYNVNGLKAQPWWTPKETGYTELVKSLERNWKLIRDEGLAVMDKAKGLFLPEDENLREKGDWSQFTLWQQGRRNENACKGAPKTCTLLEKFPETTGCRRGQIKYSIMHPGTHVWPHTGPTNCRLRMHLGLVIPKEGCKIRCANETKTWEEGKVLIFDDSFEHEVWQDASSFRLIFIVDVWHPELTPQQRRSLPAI
- Experimental Details: SPE-MS AspH inhibition assay (LOPAC screen at fixed 20 μM and IC50 dose-response), hydroxylation of cyclic peptide hFX-CP101–119
- Format: biochemical
- Protocol Conditions: LOPAC compound at 20uM, plate 2; normalised to DMSO and 2,4-PDCA controls; read-out: Plate 2 (% inhibition)
Give your result in % as a bare value.

// query If you can, please state the reported inhibition at 20 µM value of COC(=O)C1=CO[C@@H](O)[C@@H]2C(CO)=CC[C@H]12 .
// result -1.85

// query If you can, please state the reported inhibition at 20 µM value of C=C(c1ccc(C(=O)O)cc1)c1cc2c(cc1C)C(C)(C)CCC2(C)C .
// result 6

// query If you can, please state the reported inhibition at 20 µM value of O=C1NC(=O)C(c2ccccc2)(c2ccccc2)N1 .
// result 0.33

// query If you can, please state the reported inhibition at 20 µM value of NCCCCCCCCCCN .
// result -1.3

// query If you can, please state the reported inhibition at 20 µM value of Oc1cc2c(cc1O)CN(C(=S)NCCc1ccc(Cl)cc1)CCC2 [Capsazepine, capsazepine, reference compound] .
// result 99.7

----------
I'd appreciate it if you could supply Plate 1 (% inhibition) values for the items below.
- System Under Test: His6-AspH315–758 (human aspartate/asparagine-β-hydroxylase, AspH) (Homo sapiens)
- Construct: N-Terminally His6-tagged human AspH315–758 (His6-AspH315–758) was produced in E. coli BL21 (DE3) cells; made in house; host or cells: E. coli BL21 (DE3), pET-28a(+) vector
- Experimental Details: SPE-MS AspH inhibition assay (LOPAC screen at fixed 20 μM and IC50 dose-response), hydroxylation of cyclic peptide hFX-CP101–119
- Assay type: biochemical
- Protocol Conditions: LOPAC compound at fixed 20 uM; plate 1, normalised to DMSO and 2,4-PDCA controls
Structures can show the parent of a compound that is named as a salt.
Give your result in % as a bare value.

// query Reported Plate 1 (% inhibition) for His6-AspH315–758 (human aspartate/asparagine-β-hydroxylase, AspH) (Homo sapiens), given CN1CCc2cccc3c2[C@H]1Cc1ccc(O)c(O)c1-3 [Apomorphine hydrochloride hemihydrate] ?
// result 80.27

// query Reported Plate 1 (% inhibition) for His6-AspH315–758 (human aspartate/asparagine-β-hydroxylase, AspH) (Homo sapiens), given Cl.Nc1cc(Cl)c(N=C2NCCN2)c(Cl)c1 [p-Aminoclonidine hydrochloride] ?
// result -0.11

// query Reported Plate 1 (% inhibition) for His6-AspH315–758 (human aspartate/asparagine-β-hydroxylase, AspH) (Homo sapiens), given CO[C@@]1(NC(=O)CSCC#N)C(=O)N2C(C(=O)O)=C(CSc3nnnn3C)CS[C@@H]21 [Cefmetazole sodium] ?
// result -3.81

// query Reported Plate 1 (% inhibition) for His6-AspH315–758 (human aspartate/asparagine-β-hydroxylase, AspH) (Homo sapiens), given CN(C)CCCN1c2ccccc2Sc2ccc(Cl)cc21 [Chlorpromazine hydrochloride] ?
// result -29.45

// query Reported Plate 1 (% inhibition) for His6-AspH315–758 (human aspartate/asparagine-β-hydroxylase, AspH) (Homo sapiens), given N[C@@H](CC(=O)O)C(=O)O ?
// result -3.19

// query Reported Plate 1 (% inhibition) for His6-AspH315–758 (human aspartate/asparagine-β-hydroxylase, AspH) (Homo sapiens), given CC(C)NC[C@H](O)COc1ccc(CC(N)=O)cc1 [S(-)-Atenolol] ?
// result -5.71

// query Reported Plate 1 (% inhibition) for His6-AspH315–758 (human aspartate/asparagine-β-hydroxylase, AspH) (Homo sapiens), given NC(=NCc1ccccc1)NC(=O)c1nc(Cl)c(N)nc1N [Benzamil hydrochloride] ?
// result 8.35

// query Reported Plate 1 (% inhibition) for His6-AspH315–758 (human aspartate/asparagine-β-hydroxylase, AspH) (Homo sapiens), given CN(C)CC/C=C1/c2ccccc2Sc2ccc(Cl)cc21 [Chlorprothixene hydrochloride] ?
// result -27.95

// query Reported Plate 1 (% inhibition) for His6-AspH315–758 (human aspartate/asparagine-β-hydroxylase, AspH) (Homo sapiens), given O=NN(CCCl)C(=O)NCCCl ?
// result -10.30

// query Reported Plate 1 (% inhibition) for His6-AspH315–758 (human aspartate/asparagine-β-hydroxylase, AspH) (Homo sapiens), given Oc1ccccc1O ?
// result 76.68

// query Reported Plate 1 (% inhibition) for His6-AspH315–758 (human aspartate/asparagine-β-hydroxylase, AspH) (Homo sapiens), given N[C@@H]1CONC1=O (racemic) ?
// result -17.16

// query Reported Plate 1 (% inhibition) for His6-AspH315–758 (human aspartate/asparagine-β-hydroxylase, AspH) (Homo sapiens), given NCCCS(=O)(=O)O.[Na] [3-Amino-1-propanesulfonic acid sodium] ?
// result -7.08

// query Reported Plate 1 (% inhibition) for His6-AspH315–758 (human aspartate/asparagine-β-hydroxylase, AspH) (Homo sapiens), given CN(C)CCCC1(c2ccc(F)cc2)OCc2cc(C#N)ccc21 (stereo not drawn) [Citalopram hydrobromide] ?
// result -13.21

// query Reported Plate 1 (% inhibition) for His6-AspH315–758 (human aspartate/asparagine-β-hydroxylase, AspH) (Homo sapiens), given Cl.Cn1ccc2cc(NC(=O)Nc3cccnc3)ccc21 [SB 200646 hydrochloride] ?
// result -6.42

// query Reported Plate 1 (% inhibition) for His6-AspH315–758 (human aspartate/asparagine-β-hydroxylase, AspH) (Homo sapiens), given O=C(O)c1ccccc1Nc1ccccc1 ?
// result 20.57

// query Reported Plate 1 (% inhibition) for His6-AspH315–758 (human aspartate/asparagine-β-hydroxylase, AspH) (Homo sapiens), given CCN(CC)CCCCCCCCOC(=O)c1cc(OC)c(OC)c(OC)c1.Cl [TMB-8 hydrochloride] ?
// result -14.63

// query Reported Plate 1 (% inhibition) for His6-AspH315–758 (human aspartate/asparagine-β-hydroxylase, AspH) (Homo sapiens), given OC[C@H]1O[C@@H](n2cnc3c(N[C@H]4CCC[C@@H]4O)ncnc32)[C@H](O)[C@@H]1O [GR 79236X] ?
// result -7.17

// query Reported Plate 1 (% inhibition) for His6-AspH315–758 (human aspartate/asparagine-β-hydroxylase, AspH) (Homo sapiens), given O=C(/C=C/c1ccc(O)c(O)c1)OCCc1ccccc1 [Caffeic acid phenethyl ester, reference compound] ?
// result 98.53
